The measured values listed here are drawn from patent US12528782B2.

Experiment: PK in rats after PO dosing of the prodrug of Example 1: circulating parent Compound I and prodrug
Type: in vivo
Details: rat, in vivo, 25 mg/kg, Example 1 dosed PO at 25 mpk, analyte = labelled substance
endpoint_label: AUC (µM·h)
Hi! Could you send only the number? It should be in µM·h, unit omitted.

**Q:** Fill blank: measured AUC of the compound `[2H]C([2H])([2H])NC(=O)c1cnc(NC(=O)C2CC2)cc1Nc1cccc(-c2nnn(C)n2)c1OC` is ____.
**A:** 96.9

* * *

Assay: PK in rats after PO dosing of the prodrug of Example 1: circulating parent Compound I and prodrug
Assay type: in vivo
Settings: rat, in vivo, 150 mg/kg, Example 1 dosed PO at 150 mpk, analyte = labelled substance
Each entry below carries its recorded AUC.
Hi! Could you send only the number? It should be in µM·h, unit omitted.

>>> value_reported("[2H]C([2H])([2H])NC(=O)c1cnc(NC(=O)C2CC2)cc1Nc1cccc(-c2nnn(C)n2)c1OC")
804

Lab note: next compound to report on.
**Q:** Fill blank: measured AUC of the compound `[2H]C([2H])([2H])NC(=O)c1cn(COP(=O)([O-])[O-])/c(=N/C(=O)C2CC2)cc1Nc1cccc(-c2nnn(C)n2)c1OC.[Na+].[Na+]` is ____.
**A:** 0.33
